# Test system: Pseudomonas aeruginosa PAM 1723 strain highly expressing the drug efflux pump
# assay-remarks: Effect of combined use with antimicrobial agent (levofloxacin, aztreonam) on multidrug resistant Pseudomonas aeruginosa
# Type: cell-based
# stated-conditions: minimum concentration of test compound required to enhance antibacterial activity of aztreonam at 1/8 or less of MIC, 18 hours, MHB
property: MPC8 AZT (µg/mL)
Give the quantity in µg/mL, number only.

Lookup: What MPC8 AZT value was documented for this compound, CC(C)c1csc(CCc2ccn3c(=O)c(/C=C/C(=O)O)c(N4CCCC(O)C4)nc3c2)n1 (stereo not drawn) ?
Found: 1

Lookup: Note, next up: CC(C)c1csc(/C=C/c2ccn3c(=O)c(/C=C/c4nnn[nH]4)c(N4CCCC(O)C4)nc3c2)n1 (stereo not drawn)
Found: 0.5

Lookup: Note, next up: `CC(C)(C)c1csc(NC(=O)c2ccn3c(=O)c(-c4nnn[nH]4)cnc3c2)n1`
Found: 4
